Target: HDAC3 (Homo sapiens)
Construct: is full-length with C-terminal his tag and human NCOR2, N-terminal GST tag; His (C)
Sequence (O15379 whole entry): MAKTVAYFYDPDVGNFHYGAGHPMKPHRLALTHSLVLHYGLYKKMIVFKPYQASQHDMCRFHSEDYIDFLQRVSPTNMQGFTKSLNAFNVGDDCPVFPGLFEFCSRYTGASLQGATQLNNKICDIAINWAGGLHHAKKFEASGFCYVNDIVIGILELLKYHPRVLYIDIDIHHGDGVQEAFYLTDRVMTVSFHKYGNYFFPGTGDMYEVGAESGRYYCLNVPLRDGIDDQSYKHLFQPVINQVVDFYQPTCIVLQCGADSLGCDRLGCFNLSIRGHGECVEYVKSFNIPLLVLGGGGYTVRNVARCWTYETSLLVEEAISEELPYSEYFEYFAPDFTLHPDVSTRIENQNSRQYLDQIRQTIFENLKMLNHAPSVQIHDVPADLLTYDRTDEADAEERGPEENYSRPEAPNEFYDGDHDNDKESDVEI
Sequence (Q9Y618 395-489 partner limits assumed): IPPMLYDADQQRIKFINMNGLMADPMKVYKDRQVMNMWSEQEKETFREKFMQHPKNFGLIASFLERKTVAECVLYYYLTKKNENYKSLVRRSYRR
Assay: HDAC enzyme activity assay (fluorogenic substrate), HDAC3
Settings: recombinant enzyme; read-out: HDAC3 inhibition (IC50)
pIC50: −log10 of the molar value.
Experimental endpoint: pIC50

>>> print(df.to_string())
                               smiles_entry        result
0  CCCc1nn(C)c2c(=O)[nH]c(-c3cc(Cc4ccc(C(=O)NO)s4)ccc3OCC)nc12  5.00 to 6.00
1  CCCc1nn(C)c2c(=O)[nH]c(-c3cc(Cc4ccc(CC(=O)NO)cc4)ccc3OCC)nc12        < 5.00
2  CCCc1nn(C)c2c(=O)[nH]c(-c3cc(CC4CCN(c5ncc(C(=O)NO)cn5)CC4)ccc3OCC)nc12  6.00 to 8.00
